Measured On: T1, CXCR4 (CXCR4-expressing HPB-ALL cells) (Homo sapiens, UniProt P61073)
T1 construct: endogenous in cells; host or cells: HPB-ALL (human T cell leukemia)
Experiment Notes: Flow cytometry binding of humanized 3G10 Fabs to HPB-ALL cells (Example 2)
Condition Info: Fab 0.25 μg/ml
Reported Endpoint: MFI 0.25 μg/ml

Molecule	Measured Result
h3G10.B44 VH/h3G10.B12 VL: Fab; VH SEQ ID NO:25, VL B12 (probably B12A, SEQ ID NO:61) (antibody, V domains shown) VH: EVQLVESGGGLVQPGGSLRLSCAASGFTFSDYYMSWVRQAPGKGLEWVSFIRHKANFYTTEYSTSVKGRFTISRDNSKNTLYLQMNSLRAEDTAVYYCAKDLPGFAYWGQGTLVTVSS VL: DIVMTQSPDSLAVSLGERATINCKSSQSLFNSRTRKNYLLWYQQKPGQPPKLLIYWASARESGVPDRFSGSGSGTDFTLTISSLQAEDVAVYYCKQSFRLRTFGGGTKVEIK	2094
